biological target: T1, HLA-B*2705 heavy chain with human beta 2 microglobulin on C1R-neo-B*2705 cells (human, UniProt P01889 25-362; P61769 21-119); assay: flow cytometry, C1R-neo-HLA-B27 cells, antibody 1 ug/ml
T1 construct: also called C1R-neo-HLA-B27
Quantity kind: MFI
Record the result as a number with its unit.

H4H2528P (antibody, V domains shown) VH: QVQLVESGGGVVQPGRSLRLSCAASGFTFSRFGMDWVRQAPGKGLEWVAVISYDGKNKLYADSVKGRFTISRDNSKNTLYLQMNSLRAEDTAVYYCAKEGDNWNFVGDSWGQGTLVTVSS VL: DIQMTQSPSSVSASVGDRVTITCRASQGISARLAWYQQKPGKAPKLLIYAASSLQSGVPSRFSGSGSGTYFTLTISNLQPEDFATYYCQQANSFPYTLGQGTKLEIK :: 149 MFI
H4H2526P (antibody, V domains shown) VH: QVQLVESGGGVVQPGRSLRLSCAASGFTFSRFGMDWVRQAPGKGLEWVAVISYDGKNKLYADSVKGRFTISRDNSKNTLYMQMNSLRAEDTAVYYCAKEGDNWNFVGDSWGQGTLVTVSS VL: DIQMTQSPSSVSASVGDRVTITCRASQDISARLAWYQQKPGKAPKLLIYAASSLQSGVPSRFSGSGSGTDFTLTISSLEPEDFATYYCQQADSFPYTLGQGTKLEIK :: 146 MFI
H4H2477N2 (antibody, V domains shown) VH: QVQLQQWGAGLLKPSETLSLTCAVYGGSFSDYYWSWIRQPPGKGLEWIGEINHRGNTNYNPSLKSRVTISVDTSKNQFSLKLRSVTAADMAVYYCARIQLWLRGYDYYGMDVWGQGTTVTVSS VL: DIQMTQSPSSLSASVGDRVTITCRASQGIRNDLGWYQQKPGKAPKRLIYAASSLQGGVPSRFSGSGSGTEFSLTISSLQPEDFASYYCLQHNTYPWTFGQGTKVEIK :: 53 MFI

Now for the binder whose MFI we want.
binder H4H2534S (antibody, V domains shown) VH: EVQLVESGPGLVKPAQTLSLTCTVSGGSINSGGNYWSWIRQHPGKGLEWIGYIYYSGNTYYNPSLKSRVTISVDMSKNQFSLKLRSVTAADTAVYFCARDPRGITGTHHFDCWGQGTLVTVSS VL: EIVLTQSPGTLSLSPGERATLSCRTSQSVSSRYLAWYQQKPGQAPRLLIYDASSRATGIPDRFSGSGSGTDFTLTISRLEPEDFAVYYCQQFGPSLFTFGPGTKVDIK , MFI observed: 64.9 MFI
